# EXPERIMENTAL SYSTEM: zebrafish PXR (Danio rerio)
# Sequence (A5WYG8 144-430): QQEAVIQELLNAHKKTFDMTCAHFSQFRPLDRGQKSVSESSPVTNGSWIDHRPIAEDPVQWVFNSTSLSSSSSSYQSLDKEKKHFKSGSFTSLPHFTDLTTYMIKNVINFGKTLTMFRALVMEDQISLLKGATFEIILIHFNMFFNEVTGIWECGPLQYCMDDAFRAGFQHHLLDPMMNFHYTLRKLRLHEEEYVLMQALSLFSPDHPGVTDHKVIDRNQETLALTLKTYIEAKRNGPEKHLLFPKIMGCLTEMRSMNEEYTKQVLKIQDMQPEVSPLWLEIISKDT
# RECORDED CONDITIONS: -log(EC50), EC50 in molar units, activation of zebrafish PXR
PROPERTY MEASURED: zfPXR Activity

# MOLECULE, PROPERTY MEASURED, RESULT
measured = [
    ("CCOC(=O)c1ccccc1N [MI14, Ethyl-2-aminobenzoate]", "zfPXR Activity", "None"),
    ("CC(=O)[C@@]1(O)CC[C@H]2[C@@H]3CC=C4C[C@@H](O)CC[C@]4(C)[C@H]3CC[C@@]21C", "zfPXR Activity", "None"),
    ("CC(=O)O[C@@H]1CC[C@@]2(C)[C@H](CC[C@@H]3[C@@H]2CC[C@]2(C)[C@@H]([C@H](C)CCC(=O)O)CC[C@@H]32)C1 [BI49, 5β-Cholanic acid-3α-acetate]", "zfPXR Activity", 5.89),
]

###

# EXPERIMENTAL SYSTEM: human PXR (Homo sapiens, UniProt O75469)
# Sequence (O75469 whole entry): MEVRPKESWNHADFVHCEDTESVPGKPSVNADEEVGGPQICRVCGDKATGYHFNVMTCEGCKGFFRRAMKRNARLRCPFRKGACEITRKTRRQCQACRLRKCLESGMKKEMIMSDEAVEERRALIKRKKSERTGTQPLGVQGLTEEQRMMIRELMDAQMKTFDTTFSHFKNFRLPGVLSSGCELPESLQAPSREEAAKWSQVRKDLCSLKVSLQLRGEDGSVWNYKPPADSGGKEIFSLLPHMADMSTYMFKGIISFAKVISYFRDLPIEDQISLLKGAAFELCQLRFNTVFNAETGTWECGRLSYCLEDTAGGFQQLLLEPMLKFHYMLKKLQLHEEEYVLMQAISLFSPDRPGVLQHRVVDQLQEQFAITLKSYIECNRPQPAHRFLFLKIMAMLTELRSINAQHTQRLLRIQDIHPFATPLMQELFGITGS
# ASSAY EXPLANATION: PXR activation luciferase reporter assay, human PXR in HepG2-NTCP cells
# RECORDED CONDITIONS: Human PXR EC50 (concentration class, Figure 2A)
PROPERTY MEASURED: EC50

Req: Which EC50 is reported for this compound? C[C@]12CC[C@H]3[C@@H](CCC4=CC(=O)CC[C@@]43C)[C@@H]1CC[C@@H]2C(=O)CO
Resp: < 10 µM

###

# EXPERIMENTAL SYSTEM: mouse PXR (Mus musculus)
# Sequence (O54915 1-431): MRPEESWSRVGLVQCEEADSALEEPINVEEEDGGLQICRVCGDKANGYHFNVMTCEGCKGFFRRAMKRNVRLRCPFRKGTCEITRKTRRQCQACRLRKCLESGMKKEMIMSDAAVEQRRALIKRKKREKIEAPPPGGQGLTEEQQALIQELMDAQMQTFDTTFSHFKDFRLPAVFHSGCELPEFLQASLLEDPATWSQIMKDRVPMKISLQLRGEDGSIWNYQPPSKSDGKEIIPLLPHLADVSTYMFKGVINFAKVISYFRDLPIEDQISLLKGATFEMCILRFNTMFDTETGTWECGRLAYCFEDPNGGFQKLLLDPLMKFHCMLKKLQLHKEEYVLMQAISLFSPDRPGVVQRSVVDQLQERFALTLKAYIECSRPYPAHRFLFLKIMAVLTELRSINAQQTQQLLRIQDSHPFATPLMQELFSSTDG
# RECORDED CONDITIONS: relative to 20 μM pregnenolone 16α-carbonitrile, assigned an efficacy of 1.0
PROPERTY MEASURED: Mouse PXR efficacy, ε
One number for each entry.

Known results for compounds:
# COMPOUND, Mouse PXR efficacy, ε
rows = [
    ("C[C@H](CCC(=O)O)[C@H]1CC[C@H]2[C@@H]3[C@H](O)[C@@H](O)[C@@H]4C[C@H](O)CC[C@]4(C)[C@H]3CC[C@]12C", 2.63),
    ("Clc1cc2c(cc1Cl)Oc1cc(Cl)c(Cl)cc1O2", 1.60),
    ("CC(CCCC(CO)COS(=O)(=O)O)[C@H]1CCC2C3C(C[C@H](O)[C@@]21C)[C@@]1(C)CC[C@@H](O)C[C@@H]1C[C@H]3O (stereo partly shown)", 0.29),
]

# input for lookup
Req: Give mouse PXR (Mus musculus) Mouse PXR efficacy, ε for CC(C)CCC[C@@H](C)[C@H]1CC[C@H]2[C@@H]3[C@H](O)C[C@@H]4C[C@H](O)CC[C@]4(C)[C@H]3C[C@H](O)[C@]12C
Resp: 1.23

The reported numbers originate from paper PMC2358886.
